# ASSAY OVERVIEW: gradient 5% acetonitrile 3 min, to 50% in 2 min, to 85% in 15 min, held 3 min, 100 µL/min
# RUN PARAMETERS: column: Zorbax Extend-C18 2.1 x 50 mm; eluents: water / acetonitrile, 0.1% formic acid
Please note: RP-LC retention time exactly at 800 s is class 0. Only values below 800 s get class 1.

The following compounds have reported results that may help.
{"columns": ["COMPOUND", "CLASS ASSIGNMENT"],
 "data": [
  ["CSc1ccc(CNC(=O)c2cc3ccncc3n2C)cc1", "class 1"],
  ["CCOC(=O)C1CCN(C(=O)Cn2cnc3nc4c(cc3c2=O)CCCC4)CC1", "class 1"],
  ["COc1ccc(Cl)cc1S(=O)(=O)N1CCc2c(c(-c3nnc(-c4ccccc4)o3)nn2C)C1", "class 0"],
  ["CN1CCN(c2ccc(CNC(=O)C3CCc4sc(C(=O)N(C)C)cc4C3)cc2)CC1 (centres undefined)", "class 1"],
  ["CCN1CCN(c2cc(C(=O)O)c3cc(NS(=O)(=O)c4cc(C)ccc4C)ccc3n2)CC1", "class 1"],
  ["Cc1csc(-c2cc(S(=O)(=O)NC3CCCCC3)cn2CC(=O)N2CCCCC2)n1", "class 0"]
]}

## Input Please state whether RP-LC retention time is below 800 s for CCc1nc2cccnc2n1C1CCN(C(=O)CCCc2ccccc2)C1 (centres undefined)
## Output class 1

###

# ASSAY OVERVIEW: gradient 5% acetonitrile 3 min, to 50% in 2 min, to 85% in 15 min, held 3 min, 100 µL/min
# RUN PARAMETERS: column: Zorbax Extend-C18 2.1 x 50 mm; eluents: water / acetonitrile, 0.1% formic acid
// reported RP-LC retention time for each item listed
Form entry: value (s) — number only.

Examples with their reported RP-LC retention time follow.
{"columns": ["COMPOUND", "MEASURED METRIC", "UNIT ANNOTATION", "OBS VALUE"],
 "data": [
  ["Cc1cccc(CNC(=O)C2CC(=O)N(c3ccc4c(c3)CCN4C(=O)C3CC3)C2)c1 (stereo not given)", "RP-LC retention time", "s", 768],
  ["O=C1CC(c2noc(-c3cc(Cl)ccc3F)n2)CN1c1ccc(F)cc1 (stereo not given)", "RP-LC retention time", "s", 1100],
  ["CCCN1CCN(c2cc(C(=O)O)c3cc(NS(=O)(=O)c4ccccc4Cl)ccc3n2)CC1", "RP-LC retention time", "s", 595],
  ["CCc1ccc(CNC(=O)CC2CCN(C(=O)c3[nH]c(C)c(C(=O)OC)c3C)CC2)cc1", "RP-LC retention time", "s", 795],
  ["Cc1cc(C)cc(NC(=O)C2CCN(S(C)(=O)=O)c3ccccc3O2)c1 (stereo not given)", "RP-LC retention time", "s", 976],
  ["CN1CCN(C(=O)C2CCN(c3nc4ccc(-c5ccc(F)cc5)nc4s3)CC2)CC1", "RP-LC retention time", "s", 674],
  ["CCN(CC)C(=O)Cn1ccn2nc(-c3ccccc3)c(CO)c2c1=O", "RP-LC retention time", "s", 721],
  ["COc1ccc(S(=O)(=O)Nc2cccn3c(C4CCC4)nnc23)cc1Cl", "RP-LC retention time", "s", 822]
]}

## Input Give the measured RP-LC retention time of CC1(C(=O)NCc2ccc(F)cc2)CCCN(C(=O)Nc2cccc(Br)c2)C1 (stereo not given) .
## Output 1030

## Input Can you check `O=C(CCn1cnc2ccccc2c1=O)N1CCN(CCn2cccn2)CC1` next?
## Output 539

## Input Can you check CCc1nc(-c2csc(S(=O)(=O)N3CCCC(C(=O)Nc4ccc(Cl)cn4)C3)c2)no1 (stereo not given) next?
## Output 1080

## Input Can you check `CCc1nc(N)n(CC(=O)NCc2ccc3c(c2)OCO3)c(=O)c1C` next?
## Output 556

## Input Can you check COCC(=O)Nc1nc(-c2ccc3c(c2)NC(=O)C(C)O3)c(C)s1 (stereo not given) next?
## Output 720

## Input Can you check `Cc1nn(-c2nc(-c3ccc(Cl)cc3)cs2)c(C)c1CC(=O)N1CCCC1` next?
## Output 1120

## Input Can you check `COC(=O)c1ccc(NC(=O)CN2CCC(c3nc(-c4cccs4)no3)CC2)cc1` next?
## Output 621

## Input Can you check `COc1cccc(CNC(=O)CCC2CCN(c3cc(NC4CC4)ncn3)CC2)c1` next?
## Output 575

## Input Can you check `COc1cc(OC)cc(C(=O)NCC2(O)CCOCC2)c1` next?
## Output 589

## Input Can you check `O=C(NCCCN1CCCC1=O)C(=O)NCCC1=CCCCC1` next?
## Output 686

## Input Can you check O=S(=O)(c1ccc(F)cc1)N1CCCC(c2nnnn2-c2ccccc2)C1 (stereo not given) next?
## Output 934

## Input Can you check `CCc1nc(-c2csc(S(=O)(=O)N3CCC(C(=O)Nc4ccc(C)c(F)c4)CC3)c2)no1` next?
## Output 1060

###

# ASSAY OVERVIEW: gradient 5% acetonitrile 3 min, to 50% in 2 min, to 85% in 15 min, held 3 min, 100 µL/min
# RUN PARAMETERS: column: Zorbax Extend-C18 2.1 x 50 mm; eluents: water / acetonitrile, 0.1% formic acid
// reported RP-LC retention time for each item listed
Form entry: value (s) — number only.

{"columns": ["MOLECULE", "RP-LC retention time / s"],
 "data": [
  ["Cc1cc(OCC(=O)N2CCC3(O)CCCCC3C2)c2c3c(c(=O)oc2c1)CCCC3 (stereo not given)", 859]
]}

## Input Give the measured RP-LC retention time of O=C(c1ccncc1)N1CCN(C(=O)c2nnn3c2COC(c2ccc(Cl)cc2)C3)CC1 (stereo not given) .
## Output 717

## Input Can you check `Cc1c(S(=O)(=O)N2CCN(c3ccccn3)CC2)cc(-c2nc(-c3ccccc3)cs2)n1C` next?
## Output 885

## Input Can you check `CN1CCN(CCNC(=O)Cn2c3ccccc3c3cnn(C)c(=O)c32)CC1` next?
## Output 570

###

# ASSAY OVERVIEW: gradient 5% acetonitrile 3 min, to 50% in 2 min, to 85% in 15 min, held 3 min, 100 µL/min
# RUN PARAMETERS: column: Zorbax Extend-C18 2.1 x 50 mm; eluents: water / acetonitrile, 0.1% formic acid
MEASURED METRIC: RP-LC retention time (s)
Form entry: value (s) — number only.

Examples with their reported RP-LC retention time follow.
{"columns": ["MOLECULE", "OBS VALUE"],
 "data": [
  ["CCOc1ccc(NC(=O)Nc2cc(C(C)C)ccc2C)cc1", 1160],
  ["Oc1ccc2c3c1O[C@H]1c4oc5ccccc5c4C[C@@]4(O)[C@@H](C2)N(CC2CC2)CC[C@]314", 673],
  ["CCC(C)C(NC(=O)CCc1ccccc1OC)C(=O)Nc1nc2ccccc2[nH]1 (centres undefined)", 783],
  ["COc1cc(OC)c(NC(=O)C2CCCN(C(=O)c3cc(-c4ccncc4)n[nH]3)C2)cc1Cl (centres undefined)", 633]
]}

## Input Give the measured RP-LC retention time of `Cc1ccc(C)c(N2CCN(c3ccc4cc(S(=O)(=O)N5CCCCC5)ccc4n3)CC2)c1` .
## Output 1360

## Input Can you check `CNC(=O)[C@@H]1CN(C(=O)CCc2cc(OC)no2)C[C@H]1c1nc(C)no1` next?
## Output 620

## Input Can you check Cc1ccc(NC(=O)N2CCCC(Cn3c(C4CC4)nc4cccnc43)C2)cc1 (centres undefined) next?
## Output 685

## Input Can you check COc1ccc(C2(C(=O)N3CCC(n4c(C)cnc4-c4ccccc4)C3)CC2)cc1 (centres undefined) next?
## Output 661

## Input Can you check `Cc1cc(C)c(NC(=O)Cn2nc(N3CCC(C)CC3)c3ccccc3c2=O)c(C)c1` next?
## Output 1300

###

# ASSAY OVERVIEW: gradient 5% acetonitrile 3 min, to 50% in 2 min, to 85% in 15 min, held 3 min, 100 µL/min
# RUN PARAMETERS: column: Zorbax Extend-C18 2.1 x 50 mm; eluents: water / acetonitrile, 0.1% formic acid
// reported RP-LC retention time for each item listed
Form entry: value (s) — number only.

Examples with their reported RP-LC retention time follow.
{"columns": ["MOLECULE", "MEASURED METRIC", "UNIT ANNOTATION", "OBS VALUE"],
 "data": [
  ["CCN1C(=O)c2cc(S(=O)(=O)Nc3cc(F)ccc3F)ccc2Oc2cccnc21", "RP-LC retention time", "s", 980],
  ["CC(C)CC(=O)Nc1ccc(-c2nc(-c3ccc(Cl)cc3)no2)cc1", "RP-LC retention time", "s", 1310],
  ["O=C(Cc1c[nH]c2ccccc12)Nc1cc(-c2ccccn2)no1", "RP-LC retention time", "s", 754]
]}

## Input Give the measured RP-LC retention time of `Cc1nc(C)c(C(=O)Nc2nc(-c3ccc(OC(C)C)cc3)cs2)s1` .
## Output 1020

## Input Can you check `Cn1cc(-c2nc(C(=O)Nc3cccc(Cl)c3)cs2)c2cccnc21` next?
## Output 1110

## Input Can you check CCn1c(C2CCCN(C(=O)NCC(C)C)C2)nn(C)c1=O (stereo not given) next?
## Output 628

## Input Can you check CCOC(=O)C1CCc2sc(NC(=O)c3cc(-c4cccs4)[nH]n3)nc21 (stereo not given) next?
## Output 835
